- Tested on: CAL-72 (Osteosarcoma);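 further: after 72 h of two-drug dosing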
- Procedure Summary: Bliss excess, mean over the matrix (fraction); higher = more synergy
Returns one of Met or Not met; Met when Bliss excess is >= -0.02.

Query :: Hi team, for COc1cc2ncnc(Nc3ccc(F)c(Cl)c3)c2cc1OCCCN1CCOCC1 [Gefitinib] + CC(C)n1c(=O)n(C)c2cnc3cc(F)c(-c4ccc(OCCCN5CCCCC5)nc4)cc3c21 [AZD1390] (first compound max 10 µM, 7x7, partner max 0.3 µM) , is the recorded Bliss excess at or above -0.02?
Result :: Not met

Query :: Hi team, for C=CCn1c(=O)c2cnc(Nc3ccc(N4CCN(C)CC4)cc3)nc2n1-c1cccc(C(C)(C)O)n1 [AZD1775] + C1CN(CCC1(C(=O)N[C@@H](CCO)C2=CC=C(C=C2)Cl)N)C3=NC=NC4=C3C=CN4 [Capivasertib] (first compound max 3 µM, partner max 3 µM) , is the recorded Bliss excess at or above -0.02?
Result :: Met

Query :: Hi team, for N#Cc1cnc(Nc2cc(NC[C@H]3CNCCO3)c(C(F)(F)F)cn2)cn1 [SRA737] + O=c1[nH]cc(F)c(=O)[nH]1 [5-Fluorouracil] (first compound max 10 µM, 7x7, partner max 20 µM) , is the recorded Bliss excess at or above -0.02?
Result :: Met

Query :: Hi team, for Cn1cnc2c(F)c(Nc3ccc(Br)cc3Cl)c(C(=O)NOCCO)cc21 [Selumetinib] + C=CCn1c(=O)c2cnc(Nc3ccc(N4CCN(C)CC4)cc3)nc2n1-c1cccc(C(C)(C)O)n1 [AZD1775] (first compound max 10 µM, partner max 1 µM) , is the recorded Bliss excess at or above -0.02?
Result :: Not met

Query :: Hi team, for CC(=O)c1c(C)c2cnc(Nc3ccc(N4CCNCC4)cn3)nc2n(C2CCCC2)c1=O [Palbociclib] + Cn1cnc2c(F)c(Nc3ccc(Br)cc3Cl)c(C(=O)NOCCO)cc21 [Selumetinib] (first compound max 10 µM, 7x7, partner max 10 µM) , is the recorded Bliss excess at or above -0.02?
Result :: Met

Query :: Hi team, for COc1nnc2ccc(N3CCC(c4ccc(OCCN5CCN(C)C(=O)[C@H]5C)cc4)CC3)nn12 [AZD5153] + C[C@@H]1COCCN1C2=NC(=NC(=C2)C3(CC3)[S@](=N)(=O)C)C4=C5C=CNC5=NC=C4 [AZD6738] (first compound max 1 µM, 7x7, partner max 10 µM) , is the recorded Bliss excess at or above -0.02?
Result :: Met

Query :: Hi team, for NC1(C(=O)N[C@@H](CCO)c2ccc(Cl)cc2)CCN(c2ncnc3[nH]ccc23)CC1 [Capivasertib] + COc1nnc2ccc(N3CCC(c4ccc(OCCN5CCN(C)C(=O)[C@H]5C)cc4)CC3)nn12 [AZD5153] (first compound max 10 µM, 7x7, partner max 1 µM) , is the recorded Bliss excess at or above -0.02?
Result :: Met

Query :: Hi team, for CS(=O)(=O)CCNCc1ccc(-c2ccc3ncnc(Nc4ccc(OCc5cccc(F)c5)c(Cl)c4)c3c2)o1 [Lapatinib] + C[C@@H](Oc1cc(-c2cnn(C3CCNCC3)c2)cnc1N)c1c(Cl)ccc(F)c1Cl [Crizotinib] (first compound max 10 µM, 7x7, partner max 10 µM) , is the recorded Bliss excess at or above -0.02?
Result :: Not met

Query :: Hi team, for CCN(CCO)CCCOc1ccc2c(Nc3cc(CC(=O)Nc4cccc(F)c4)[nH]n3)ncnc2c1 [AZD2811] + O=C(c1cc(Cc2n[nH]c(=O)c3ccccc23)ccc1F)N1CCN(C(=O)C2CC2)CC1 [Olaparib] (first compound max 1 µM, 7x7, partner max 10 µM) , is the recorded Bliss excess at or above -0.02?
Result :: Met

Query :: Hi team, for C[C@@H]1COCCN1c1cc(C2([S@](C)(=N)=O)CC2)nc(-c2ccnc3[nH]ccc23)n1 [AZD6738] + O=C(c1cc(Cc2n[nH]c(=O)c3ccccc23)ccc1F)N1CCN(C(=O)C2CC2)CC1 [Olaparib] (first compound max 10 µM, 7x7, partner max 10 µM) , is the recorded Bliss excess at or above -0.02?
Result :: Met

Query :: Hi team, for CC(=O)Nc1cccc(-n2c(=O)n(C3CC3)c(=O)c3c(Nc4ccc(I)cc4F)n(C)c(=O)c(C)c32)c1 [Trametinib] + Cc1nc(-c2cn3c(n2)-c2ccc(-c4cnn(C(C)(C)C(N)=O)c4)cc2OCC3)n(C(C)C)n1 [Taselisib] (first compound max 1 µM, 7x7, partner max 10 µM) , is the recorded Bliss excess at or above -0.02?
Result :: Not met
